Measured MIC S. aureus 29213, listed per entry.
Test system: methicillin-sensitive Staphylococcus aureus ATCC 29213
Assay method text: MIC broth microdilution, S. aureus 29213
Format: cell-based
Applied conditions: Table 3
Marks after values point to notes of the source that are not given here.
Measurement type: MIC S. aureus 29213

[
  {
    "Compound": "CCCCCCCCCCCCCCCCn1cc[n+](-c2ccc(OC(F)(F)F)cc2)c1C.[Br-]",
    "Target or test system": "methicillin-sensitive Staphylococcus aureus ATCC 29213",
    "Recorded value": "2.35^a μM"
  },
  {
    "Compound": "CCCCCCCCCCCCCCCCn1cc[n+](CCCC)c1C.[Br-]",
    "Target or test system": "methicillin-sensitive Staphylococcus aureus ATCC 29213",
    "Recorded value": "2.35^a μM"
  },
  {
    "Compound": "CCCCCCCCCCCCCCCCn1cc[n+](Cc2cccc(F)c2)c1C.[Br-]",
    "Target or test system": "methicillin-sensitive Staphylococcus aureus ATCC 29213",
    "Recorded value": "4.69^a μM"
  },
  {
    "Compound": "CCCCCCCCCCCC[N+](C)(C)CC[N+](C)(C)CC[N+](C)(C)CCCCCCCCCCCC [QAC-10, reference compound]",
    "Target or test system": "methicillin-sensitive Staphylococcus aureus ATCC 29213",
    "Recorded value": "4.69^a μM"
  },
  {
    "Compound": "CCCCCCCCCCCCCCCCn1cc[n+](CCO)c1C.[Br-]",
    "Target or test system": "methicillin-sensitive Staphylococcus aureus ATCC 29213",
    "Recorded value": "1.17^a μM"
  },
  {
    "Compound": "CCCCCCCCCCCCCCCCn1cc[n+](-c2ccc(Oc3ccccc3)cc2)c1C.[Br-]",
    "Target or test system": "methicillin-sensitive Staphylococcus aureus ATCC 29213",
    "Recorded value": "4.69^a μM"
  }
]

* * *

System: Acinetobacter baumannii (ATCC 1794)
Assay method text: MIC broth microdilution, A. baumannii 1794
Assay type: cell-based
Applied conditions: Table 1A; in µM
Marks after values point to notes of the source that are not given here.
Measured MIC A. baumannii 1794, listed per entry.
Measurement type: MIC A. baumannii 1794

[
  {
    "Compound": "Cc1nccn1Cc1ccccc1 [Compound 22]",
    "Recorded value": ">100"
  },
  {
    "Compound": "CCCCCCCCCCCCCCCCn1cc[n+](Cc2cc(C(F)(F)F)cc(C(F)(F)F)c2)c1C.[Br-] [Compound 19]",
    "Recorded value": ">100"
  },
  {
    "Compound": "CCCCCCCCCCCCCCCCn1ccnc1C [Compound 23, 1-hexadecyl-2-methyl-1H-imidazole]",
    "Recorded value": ">100"
  },
  {
    "Compound": "CCCCCCCCCCCCCCCCn1cc[n+](Cc2ccc(Br)cc2)c1C.[Br-] [Compound 14]",
    "Recorded value": ">100*"
  },
  {
    "Compound": "CCCCCCCCCCCCCCCCn1cc[n+](Cc2ccc(C(C)C)cc2)c1C.[Br-] [Compound 12]",
    "Recorded value": ">100"
  },
  {
    "Compound": "CCCCCCCCCCCCCCCCn1cc[n+](CCCC)c1C.[Br-] [Compound 9]",
    "Recorded value": 12.5
  },
  {
    "Compound": "CCCCCCCCCCCCCCCCn1c(C)[n+](Cc2cccc(OC)c2)c2ccccc21.[Br-] [Compound 26]",
    "Recorded value": ">100"
  },
  {
    "Compound": "CCCCCCCCCCCCCCCCn1c(C)[n+](Cc2cccc(F)c2)c2ccccc21.[Br-] [Compound 27]",
    "Recorded value": ">100"
  },
  {
    "Compound": "CCCCCCCCCCCCCCCCn1cc[n+](Cc2cc(Br)cc(Br)c2)c1C.[Br-] [Compound 20]",
    "Recorded value": ">100"
  },
  {
    "Compound": "CCCCCCCCCCCCCCCCn1cc(-c2ccccc2)[n+](C)n1.[I-] [Compound 30]",
    "Recorded value": 12.5
  }
]
